test system: soybean (Glycine max); assay: Test A1 postemergence, soybean; format: in vivo; conditions: Postemergence, 31 g ai/ha; 0 to 100 scale (0 no effect, 100 complete control); 10 days
test-readout: Plant response rating, Soybean
Answers are plain numbers.

{"molecule": "Cc1cc(C)c(N(COC(=O)C(C)(C)C)S(=O)(=O)C(F)(F)F)cc1C1=NOC2CCCCCC12 (single isomer, unassigned)", "val": 0}
{"molecule": "Cc1cc(C)c(C2=NOC(OCC(C)C)C2)cc1NS(=O)(=O)C(F)(F)F (stereo not shown)", "val": 20}
{"molecule": "Cc1c(C(=O)N2CCC(F)(F)CC2)cc(N(COC(=O)C(C)(C)C)S(=O)(=O)C(F)(F)F)c(C)c1C", "val": 20}

The following molecules each have a reported value; give each one's Plant response rating, Soybean.
1. Cc1c(NS(=O)(=O)C(F)(F)F)cc(C(=O)N2CCC(F)CC2)c(C)c1C
2. CCC1ON=C(c2cc(NS(=O)(=O)C(F)(F)F)c(C)cc2C)C1CC (stereo not shown)
3. Cc1c(C(=O)N2CCC(F)CC2)cc(N(COC(=O)C(C)(C)C)S(=O)(=O)C(F)(F)F)c(C)c1C
4. CCOC(=O)N(c1cc(C(=O)N2CCOCC2)c(C)c(C)c1C)S(=O)(=O)C(F)(F)F

1: 50; 2: 30; 3: 50; 4: 50
